- experimentalProtocol: Restrictive medium S. cerevisiae growth inhibition, OD615, pilot screen of yeast lifespan reduction project, restrictive growth control (AID 706);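 further: modified DeaD lifespan yeast strain shifted to restrictive glucose medium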
- particulars: OD615, 48 h, at 10 µM, hits give high values
Activity calls are given as the source filed them.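 How the source made its calls: active means growth inhibition above a set limit, 3 SD over mean compound inhibition, in both replicates (cut at about 43% in these data); inconclusive means above the limit in only one replicate; inactive means at or below the limit in both replicates.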
Would you kindly list growth inhibition for each of these molecules?

INPUT: Recorded growth inhibition of COc1ccc(N(CC(=O)NCc2ccco2)S(C)(=O)=O)cc1Cl , please.
OUTPUT: -4.89% (inactive)

INPUT: Recorded growth inhibition of O=C(NCc1cccnc1)NC1(C(F)(F)F)Oc2ccccc2O1 , please.
OUTPUT: 5.9% (inactive)

INPUT: Recorded growth inhibition of O=C(CSCc1ccc(Cl)cc1)NCC1CCCO1 (stereo unspecified) , please.
OUTPUT: -2.08% (inactive)

INPUT: Recorded growth inhibition of CCN1C(=O)CSc2ccc(C(=O)OC)cc21 , please.
OUTPUT: -12.7% (inactive)

INPUT: Recorded growth inhibition of Cn1nc(CC(=O)NC2CCCCCC2)c2ccccc2c1=O , please.
OUTPUT: 6.03% (inactive)

INPUT: Recorded growth inhibition of Cc1ccc(-c2noc(CSc3nnnn3-c3ccccc3)n2)cc1 , please.
OUTPUT: 9.4% (inactive)

###

- experimentalProtocol: RAM signaling pathway blockade in yeast – S. cerevisiae, Pdr1DBD-CYC8 efflux-inhibited sensitized strain, primary screen (AID 1298);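 further: 0% = DMSO untreated cells without growth and 100% = 10 µM 1-NA-PP1 full growth; higher means more yeast growth rescued from 5-FOA killing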
- particulars: S. cerevisiae cbk1-as DSE1-URA3 strain, 5-FOA growth OD615, 2 d; at 50 µM; hits give high values
quantityKind: RAM network inhibition (%)
Give the value, in units of %, as a plain number.

INPUT: Recorded RAM network inhibition of CCCCCn1c(CNC(=O)c2cccs2)nc2ccccc21 , please.
OUTPUT: 3.16

INPUT: Recorded RAM network inhibition of COc1cccc(OCCCCSc2ncccn2)c1 , please.
OUTPUT: 4.14

INPUT: Recorded RAM network inhibition of O=C(CN1CCN(c2ccccn2)CC1)Nc1cccc(C(F)(F)F)c1 , please.
OUTPUT: 2.45

INPUT: Recorded RAM network inhibition of Cc1cc(C)n(S(=O)(=O)c2cccc(Cl)c2Cl)n1 , please.
OUTPUT: 2.28

INPUT: Recorded RAM network inhibition of Clc1ccc(CSc2nnc(-c3cccnc3)n2Cc2ccco2)c(Cl)c1 , please.
OUTPUT: 11.6

INPUT: Recorded RAM network inhibition of CCn1c(O)c(C2=NCCCC2)c2ccccc21 , please.
OUTPUT: 1.14

INPUT: Recorded RAM network inhibition of O=C1c2ccccc2C(Nc2ccc3c(c2)OCCO3)N1c1ccccn1 (stereo unspecified) , please.
OUTPUT: 4.05

INPUT: Recorded RAM network inhibition of C=CCn1cc(C(=O)NCCCOC)c(=O)c2cc(S(=O)(=O)N3CCC(C)CC3)ccc21 , please.
OUTPUT: -0.52

INPUT: Recorded RAM network inhibition of CC(=O)CCS(=O)(=O)c1ccc(C)c(C)c1 , please.
OUTPUT: 1.15

INPUT: Recorded RAM network inhibition of COc1ccc(-c2c(C)oc3c(CN4CCN(C)CC4)c(O)ccc3c2=O)cc1 , please.
OUTPUT: -0.85

INPUT: Recorded RAM network inhibition of O=C1CC(c2ccco2)CC(O)=C1C=NCC1CCNCC1 (stereo unspecified) , please.
OUTPUT: 3.8

Taken from PubChem BioAssay.
